Tested on: PAF-induced blood platelet aggregation
TEST: Inhibitory effect in vitro against PAF-induced blood platelet aggregation
Type: cell-based
MEASUREMENT PARAMETERS: Oryctolagus cuniculus; rabbit platelet rich plasma, stimulated with ℓ-C16:0 PAF (10⁻⁸ ∼ 3 x 10⁻⁸ M), 37°C; read-out: Platelet aggregation inhibition, IC₅₀
ASSAY METRIC: IC50 (µg/mL)
Give bare numbers, in µg/mL.

# COMPOUND, UNIT SPEC, IC50
rows = [
    ("O=C([C@@H]1CSC(c2cccnc2)N1)N1CCCN(CCOC(c2ccccc2)c2ccccc2)CC1 (some centres unmarked)", "µg/mL", 0.22),
    ("O=C([C@@H]1CSC(c2cccnc2)N1)N1CCCN(CCOC(c2ccc(F)cc2)c2ccc(F)cc2)CC1 (some centres unmarked)", "µg/mL", 0.19),
    ("O=C([C@@H]1CSC(c2cccnc2)N1)N1CCN(CCOC(c2ccccc2)c2ccccc2)CC1 (some centres unmarked)", "µg/mL", 0.095),
    ("O=C([C@@H]1CSC(c2cccnc2)N1)N1CCN(CCOC(c2ccccc2)c2ccc(Cl)cc2)CC1 (some centres unmarked)", "µg/mL", 0.085),
    ("CN(CCOC(c1ccccc1)c1ccccc1)CCN(C)C(=O)[C@@H]1CSC(c2cccnc2)N1 (some centres unmarked)", "µg/mL", 0.063),
    ("O=C([C@@H]1CSC(c2cccnc2)N1)N1CCN(CCOC(c2ccc(F)cc2)c2ccc(F)cc2)CC1 (some centres unmarked)", "µg/mL", 0.14),
    ("Cc1ccc(C(OCCN2CCN(C(=O)[C@@H]3CSC(c4cccnc4)N3)CC2)c2ccccc2)cc1 (some centres unmarked)", "µg/mL", 0.055),
]

Okay, next one:
Tell me IC50 reported for O=C([C@@H]1CSC(c2cccnc2)N1)N1CCN(CCOC(c2ccccc2)C2CCCCC2)CC1 (some centres unmarked)
0.072
